# study-target: MOR (Homo sapiens, UniProt P35372)
# Sequence (P35372 whole entry): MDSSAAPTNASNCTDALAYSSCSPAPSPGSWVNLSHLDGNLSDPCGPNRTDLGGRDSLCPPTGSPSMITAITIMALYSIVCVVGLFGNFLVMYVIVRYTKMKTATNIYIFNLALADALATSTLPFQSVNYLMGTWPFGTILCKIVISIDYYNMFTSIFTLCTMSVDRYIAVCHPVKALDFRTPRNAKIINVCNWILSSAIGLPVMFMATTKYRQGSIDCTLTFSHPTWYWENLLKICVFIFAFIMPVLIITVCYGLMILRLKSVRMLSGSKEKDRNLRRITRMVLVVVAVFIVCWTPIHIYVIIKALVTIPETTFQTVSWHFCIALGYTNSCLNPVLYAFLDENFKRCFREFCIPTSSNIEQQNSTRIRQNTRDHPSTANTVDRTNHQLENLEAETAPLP
# test-details: cell-based
# Format: cell-based
# Set-up: expressed in transfected cells; host or cells: CHO cells stably expressing MOR
# measurement-setup: CHO cells expressing MOR; read-out: EC50 (inhibition of cAMP accumulation)
pEC50: −log10 of the molar value.
Listed below: pEC50 values for each entry.

compound: COC(=O)[C@@H]1C=C(OC(=O)c2ccc3c(c2)C(=O)NC3)C(=O)[C@H]2[C@@]1(C)CC[C@H]1C(=O)O[C@H](c3ccoc3)C[C@]21C [Entry 8]
study-target: MOR (Homo sapiens, UniProt P35372)
pEC50: 8.66

compound: COCc1ccc(C(=O)OC2=C[C@@H](C(=O)OC)[C@]3(C)CC[C@H]4C(=O)O[C@H](c5ccoc5)C[C@]4(C)[C@H]3C2=O)cc1 [Entry 5]
study-target: MOR (Homo sapiens, UniProt P35372)
pEC50: 7.89

compound: COC(=O)[C@@H]1C=C(OC(=O)c2ccc3c(c2)CNC3=O)C(=O)[C@H]2[C@@]1(C)CC[C@H]1C(=O)O[C@H](c3ccoc3)C[C@]21C [Entry 9]
study-target: MOR (Homo sapiens, UniProt P35372)
pEC50: 8.49

The reported numbers originate from patent US11034679B2.
